# Study Target: hENT1 (Homo sapiens, UniProt Q99808)
# Construct: performed on erythrocyte cell membranes endogenously expressing the transporter; tissue Sanquin Bloedvoorziening, Amsterdam, The Netherlands; host or cells: erythrocyte membranes (endogenous expression)
# Sequence (Q99808 whole entry): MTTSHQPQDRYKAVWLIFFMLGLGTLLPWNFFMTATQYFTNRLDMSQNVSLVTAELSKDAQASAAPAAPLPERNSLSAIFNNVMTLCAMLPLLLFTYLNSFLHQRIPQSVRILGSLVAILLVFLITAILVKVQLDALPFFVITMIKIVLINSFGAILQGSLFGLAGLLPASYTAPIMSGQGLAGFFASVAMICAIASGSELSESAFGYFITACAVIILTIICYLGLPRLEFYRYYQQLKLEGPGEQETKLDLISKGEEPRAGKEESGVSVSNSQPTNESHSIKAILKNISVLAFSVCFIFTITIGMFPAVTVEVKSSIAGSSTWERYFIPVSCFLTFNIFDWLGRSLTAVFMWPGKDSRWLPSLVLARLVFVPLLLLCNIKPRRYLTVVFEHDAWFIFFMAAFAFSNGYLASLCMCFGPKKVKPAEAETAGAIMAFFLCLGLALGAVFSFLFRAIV
# Test Protocol: time-dependent hENT1 radioligand binding assay ([3H]NBTI displacement with or without 4 h preincubation)
# Study Conditions: 1 µM inhibitor; 4 h preincubation at 10 °C; mean (individual values) of two experiments
Parameter: % displacement at 1 μM at 4 h preincubation. Scope: all listed entries.
Quantity Measured: % displacement at 1 μM at 4 h preincubation

| Molecule Smiles | Endpoint Result |
| --- | --- |
| COc1cc(C(=O)OCCCN2CCN(CCOC(=O)c3ccc(S(=O)(=O)F)cc3)CC2)cc(OC)c1OC | 33 (34, 32) % |
| COc1cc(C(=O)OCCCN2CCN(CCCCOC(=O)c3cccc(S(=O)(=O)F)c3)CC2)cc(OC)c1OC | 51 (48, 54) % |
| COc1cc(C(=O)OCCCN2CCN(CCCOC(=O)c3ccc(S(=O)(=O)F)cc3)CC2)cc(OC)c1OC | 26 (30, 22) % |

###

# Study Target: hENT1 (Homo sapiens, UniProt Q99808)
# Construct: performed on erythrocyte cell membranes endogenously expressing the transporter; tissue Sanquin Bloedvoorziening, Amsterdam, The Netherlands; host or cells: erythrocyte membranes (endogenous expression)
# Test Protocol: time-dependent hENT1 radioligand binding assay ([3H]NBTI displacement with or without 4 h preincubation)
# Study Conditions: without preincubation; read-out: Ki (nM) without preincubation (converted)
# Experimental: Radioligand displacement assays were performed as previously described. […] Non-specific binding (NSB) was assessed with 10 µM unlabeled NBTI. […] All experimental data was analyzed using GraphPad Prism 10.0.2 software (GraphPad Software Inc., San Diego, CA, USA). […]
Parameter Ki: see the listing below.
Quantity Measured: Ki (nM)

| Compound | Endpoint Result |
| --- | --- |
| C=CC(=O)NCCOc1c(OC)cc(C(=O)OCCCN2CCN(CCCOC(=O)c3cc(OC)c(OC)c(OC)c3)CC2)cc1OC [Compound 14a] | 48.6 |
| C=CC(=O)NCCCOc1c(OC)cc(C(=O)OCCCN2CCN(CCCOC(=O)c3cc(OC)c(OC)c(OC)c3)CC2)cc1OC [Compound 14b] | 5.9 |
| COc1cc(C(=O)OCCCN2CCN(CCCOC(=O)c3ccc(N=C=S)cc3)CC2)cc(OC)c1OC | 48.5 |
| C=CS(=O)(=O)NCCCOc1c(OC)cc(C(=O)OCCCN2CCN(CCCOC(=O)c3cc(OC)c(OC)c(OC)c3)CC2)cc1OC [Compound 14d] | 17.5 |
| C=CC(=O)Nc1ccc(C(=O)OCCCN2CCN(CCCOC(=O)c3cc(OC)c(OC)c(OC)c3)CC2)cc1 [Compound 10b] | 33.1 |

###

# Study Target: hENT1 (Homo sapiens, UniProt Q99808)
# Construct: performed on erythrocyte cell membranes endogenously expressing the transporter; tissue Sanquin Bloedvoorziening, Amsterdam, The Netherlands; host or cells: erythrocyte membranes (endogenous expression)
# Test Protocol: time-dependent hENT1 radioligand binding assay ([3H]NBTI displacement with or without 4 h preincubation)
# Study Conditions: Ki (nM) at 4 h preincubation, 4 h preincubation at 10 °C
Reported Ki is given for each of the following molecules.
Quantity Measured: Ki (nM)

| Molecule | Endpoint Result |
| --- | --- |
| C=CC(=O)NCCOc1c(OC)cc(C(=O)OCCCN2CCN(CCCOC(=O)c3cc(OC)c(OC)c(OC)c3)CC2)cc1OC [Compound 14a] | 50.6 |
| C=CS(=O)(=O)NCCCOc1c(OC)cc(C(=O)OCCCN2CCN(CCCOC(=O)c3cc(OC)c(OC)c(OC)c3)CC2)cc1OC [Compound 14d] | 14.2 |
| COc1cc(C(=O)OCCCN2CCN(CCCOC(=O)c3ccc(N=C=S)cc3)CC2)cc(OC)c1OC | 29.9 |
| C=CC(=O)Nc1ccc(C(=O)OCCCN2CCN(CCCOC(=O)c3cc(OC)c(OC)c(OC)c3)CC2)cc1 [Compound 10b] | 43.6 |
